procedure.text: Pharmacokinetics studies in mice
Assay type: in vivo
condition.set: mouse, in vivo, SC-5 mg/kg, 5% Ethanol 5% Cremophor 90% Saline
endpoint.label: Tmax (min)

{"molecule": "CC[C@H](C(=O)Nc1ncc(C(=O)NO)s1)c1ccc(OC)cc1 [#1a]", "endpoint.label": "Tmax", "reported.measurement": 15}

====

Test system: CT26
procedure.text: CellTiter-Glo cell viability assay
Format: cell-based, Murine
condition.set: Mus musculus; CT26, MURINE COLON, Colon, 72 hours
pIC50: −log10 of the molar value.
endpoint.label: pIC50

{"compound": "CC[C@H](C(=O)Nc1ncc(C(=O)NO)s1)c1ccc(OC)cc1", "endpoint.label": "pIC50", "reported.measurement": 6.33}
{"compound": "CCC(C(=O)Nc1ncc(C(=O)NO)s1)c1ccc(OC)cc1 (racemic)", "endpoint.label": "pIC50", "reported.measurement": 5.88}
{"compound": "CC[C@@H](C(=O)Nc1ncc(C(=O)NO)s1)c1ccc(OC)cc1", "endpoint.label": "pIC50", "reported.measurement": 5.49}

Data origin: patent US11420947B2
